test: Pharmacokinetic study in cynomolgus monkeys after oral (nasogastric) gavage, sublingual and intravenous administration; type: in vivo; settings: both sexes, cynomolgus monkey, plasma, oral, 30 mg/kg, Plasma Bumetanide Dibenzylamide concentration, Median, monkey, NG 30 mg/kg, Second Formulation (Form 3), 0.25 h, N=4
MEASURE: concentration at 0.25 h (ng/mL)

- CCCCNc1cc(C(=O)N(Cc2ccccc2)Cc2ccccc2)cc(S(N)(=O)=O)c1Oc1ccccc1 [Bumetanide Dibenzylamide]: 0.256

----------
test: Pharmacokinetic study in cynomolgus monkeys after oral (nasogastric) gavage, sublingual and intravenous administration; assay type: in vivo; conditions: cynomolgus monkey, plasma, other: sublingual, 5 mg/kg, Plasma Bumetanide Dibenzylamide concentration, Mean, monkey, SL, dose column 5 mg/kg (title 30 mg/kg), Fourth Formulation (Form 2), 0.25 h, N=4
MEASURE: concentration at 0.25 h (ng/mL)

• CCCCNc1cc(C(=O)N(Cc2ccccc2)Cc2ccccc2)cc(S(N)(=O)=O)c1Oc1ccccc1 [Bumetanide Dibenzylamide] = 0

----------
test: Oral delivery of unformulated Bumetanide Dibenzylamide in Beagle dogs, pharmacokinetics and bioavailability; format: in vivo; details: Beagle, dog, in vivo, 30 mg, oral non-formulated, read-out: Absolute Bioavailability
MEASURE: bioavailability

• CCCCNc1cc(C(=O)N(Cc2ccccc2)Cc2ccccc2)cc(S(N)(=O)=O)c1Oc1ccccc1 [Bumetanide Dibenzylamide] = ~5.1%

----------
test: Pharmacokinetic study in cynomolgus monkeys after oral (nasogastric) gavage, sublingual and intravenous administration; assay type: in vivo; conditions: cynomolgus, cynomolgus monkey, plasma, intravenous, 2 mg/kg, Plasma Bumetanide Dibenzylamide concentration, Median, monkey, dose column 2 mg/kg (title 30 mg/kg), Third Formulation (Form 4), 0.50 h, N=4
MEASURE: concentration at 0.5 h (ng/mL)

- CCCCNc1cc(C(=O)N(Cc2ccccc2)Cc2ccccc2)cc(S(N)(=O)=O)c1Oc1ccccc1 [Bumetanide Dibenzylamide]: 672

----------
experiment: Pharmacokinetic study in cynomolgus monkeys after oral (nasogastric) gavage, sublingual and intravenous administration; type: in vivo; settings: both sexes, cynomolgus monkey, plasma, oral, 30 mg/kg, Plasma Bumetanide Dibenzylamide concentration, Median, monkey, NG 30 mg/kg, First Formulation (Form 1), 0.25 h, N=4
MEASURE: concentration at 0.25 h (ng/mL)

- CCCCNc1cc(C(=O)N(Cc2ccccc2)Cc2ccccc2)cc(S(N)(=O)=O)c1Oc1ccccc1 [Bumetanide Dibenzylamide]: 0.962

----------
experiment: physchem
MEASURE: logP

- CCCCNc1cc(C(=O)N(Cc2ccccc2)Cc2ccccc2)cc(S(N)(=O)=O)c1Oc1ccccc1 [Bumetanide Dibenzylamide]: ~5.9
- CCCCNc1cc(C(=O)O)cc(S(N)(=O)=O)c1Oc1ccccc1 [Bumetanide, reference compound]: ~2.61

----------
assay: Pharmacokinetic study in cynomolgus monkeys after oral (nasogastric) gavage, sublingual and intravenous administration; format: in vivo; settings: cynomolgus, cynomolgus monkey, plasma, intravenous, 2 mg/kg, Plasma Bumetanide Dibenzylamide concentration, Median, monkey, dose column 2 mg/kg (title 30 mg/kg), Third Formulation (Form 4), 24.00 h, N=4
MEASURE: concentration at 24 h (ng/mL)

* CCCCNc1cc(C(=O)N(Cc2ccccc2)Cc2ccccc2)cc(S(N)(=O)=O)c1Oc1ccccc1 [Bumetanide Dibenzylamide] | 2.62

----------
Experiment: Pharmacokinetic study in cynomolgus monkeys after oral (nasogastric) gavage, sublingual and intravenous administration
Format: in vivo
Conditions: cynomolgus monkey, plasma, other: sublingual, 5 mg/kg, Plasma Bumetanide Dibenzylamide concentration, Mean, monkey, SL, dose column 5 mg/kg (title 30 mg/kg), Fourth Formulation (Form 2), 0.00 h, N=4
Experimental: A pharmacokinetic study was done in cynomolgus monkeys following single oral (nasogastric) gavage, sublingual, and intravenous administration. […] Calibration curves, blanks, and analytical QCs were prepared in monkey plasma (K2EDTA). The extracts were evaporated to dryness, reconstituted, and then analyzed by LC-MS/MS. The calibration range was 0.250-250 ng/mL for both analytes. If the criteria for either the calibration curve or the analytical QCs were not met, the analytical run was rejected. […]
MEASURE: concentration at 0 h (µg/mL)

- CCCCNc1cc(C(=O)N(Cc2ccccc2)Cc2ccccc2)cc(S(N)(=O)=O)c1Oc1ccccc1 [Bumetanide Dibenzylamide]: 0
